Data origin: ChEMBL document CHEMBL1148291

- assay.summary: clinical
- test.settings: human, in vivo
- Description: Observed volume of distribution
# Lookup of reported log10 of Vd keyed by entry
Scale: decimal log of Vd, Vd in L/kg.

Please review the following examples before continuing.
1) C[N+](C)([O-])CCC=C1c2ccccc2CCc2ccccc21 [AMITRIPTYLINOXIDE]    0.08
2) CCOC(=O)C1(c2ccccc2)CCN(C)CC1    0.43
3) CNCC[C@@H](Oc1ccccc1C)c1ccccc1    -0.07
4) O=C1Nc2ccc(Cl)cc2C(c2ccccc2Cl)=NC1O (centres undefined)    0.20
5) C=CCN1CC[C@]23c4c5ccc(O)c4O[C@H]2C(=O)CC[C@@]3(O)[C@H]1C5    0.63

// query State the recorded log10 of Vd for this entry: `Cc1ncc2n1-c1ccc(Cl)cc1C(c1ccccc1F)=NC2`
// result 0.15

// query State the recorded log10 of Vd for this entry: CNC1=Nc2ccc(Cl)cc2C(c2ccccc2)=[N+]([O-])C1 [CHLORDIAZEPOXIDE]
// result -0.47

// query State the recorded log10 of Vd for this entry: CC(C)NCC(O)COc1ccc(COCCOC(C)C)cc1 (centres undefined)
// result 0.52

// query State the recorded log10 of Vd for this entry: Fc1ccc([C@@H]2CCNCC2COc2ccc3c(c2)OCO3)cc1 (single isomer, unassigned)
// result 1.24

---

# Lookup of reported pKa keyed by entry
- assay.summary: Ionization constant (pKa)
- Type: physicochemical
Reply with just the number.

Please review the following examples before continuing.
1) CCN(CC)CCCC(C)Nc1c2ccc(Cl)cc2nc2ccc(OC)cc12 (stereo not given)    7.73
2) CN1CCN2c3ncccc3Cc3ccccc3C2C1 (stereo not given)    7.3
3) OCCN1CCN(CCCN2c3ccccc3Sc3ccc(Cl)cc32)CC1    8.11

// query State the recorded pKa for this entry: `CN(C)CCCN1c2ccccc2Sc2ccccc21`
// result 9.28

// query State the recorded pKa for this entry: `CCN(C)C(=O)Oc1cccc([C@H](C)N(C)C)c1`
// result 8.99

---

- assay.summary: Ionization constant (pKa)
- Type: physicochemical
measurement.label: pKa
Reply with just the number.

Please review the following examples before continuing.
1) CC(C)NCC(O)c1ccc(NS(C)(=O)=O)cc1 (stereo unspecified)    9.76
2) CC(CN(C)C)CN1c2ccccc2CCc2ccccc21 (stereo unspecified)    9.24
3) CC(CCc1ccccc1)NCC(O)c1ccc(O)c(C(N)=O)c1 (stereo unspecified)    7.4
4) OC(CNCC(O)C1CCc2cc(F)ccc2O1)C1CCc2cc(F)ccc2O1 (stereo unspecified)    8.22
5) CNCCC=C1c2ccccc2CCc2ccccc21    10.1

// query State the recorded pKa for this entry: CC(C)NCC(O)COc1ccc(COCCOC(C)C)cc1 (stereo unspecified)
// result 9.57

// query State the recorded pKa for this entry: Cc1ccccc1OCC(O)CNCCOc1ccc(C(N)=O)cc1 (stereo unspecified)
// result 7.9

// query State the recorded pKa for this entry: `CNCC[C@@H](Oc1ccccc1C)c1ccccc1`
// result 10.1

// query State the recorded pKa for this entry: `CC(C)(C)NC[C@H](O)COc1nsnc1N1CCOCC1`
// result 8.8

// query State the recorded pKa for this entry: Cc1ccc(O)c(C(CCN(C(C)C)C(C)C)c2ccccc2)c1 (single isomer, unassigned)
// result 9.8

// query State the recorded pKa for this entry: CC(C)NCC(O)COc1ccc(CCOCC2CC2)cc1 (stereo unspecified)
// result 9.21
